system: L1210 leukemia ip in BDF1 mice, survival T/C; assay: NCI In Vivo Anticancer Drug Screen. Data for tumor model L1210 Leukemia (intraperitoneal) in B6D2F1 (BDF1) mice; conditions: endpoint: mean survival time; dose: 400.0 mg/kg/injection; schedule: Q01DX001 (ip); vehicle: saline; higher = longer survival
Inconclusive results and toxic doses are left out.
propertyName: T/C

{"molecule": "Cc1cc(/C=N/N=c2\\[nH][nH]/c(=N\\N=C\\c3cc(C)n(-c4ccccc4)c3C)c3ccccc23)c(C)n1-c1ccccc1", "propertyName": "T/C", "recordedResult": "103 % of control"}
{"molecule": "CC(=O)Nc1ccc(S(=O)(=O)NC2(c3ccccc3)C(=O)N(C)C(=O)N(C)C2=O)cc1", "propertyName": "T/C", "recordedResult": "103 % of control"}
{"molecule": "CC(C)OC(=S)SSC(=S)OC(C)C", "propertyName": "T/C", "recordedResult": "102 % of control"}
{"molecule": "O=C1C=C(NCCCCC2CCCCC2)c2ccccc2C1=O", "propertyName": "T/C", "recordedResult": "91 % of control"}
{"molecule": "CCSC1OC(C(COC(C)=O)OC(C)=O)C(OC(C)=O)C1NC(C)=O (stereo unspecified)", "propertyName": "T/C", "recordedResult": "100 % of control"}
{"molecule": "Cc1nc(N)c2c(ncn2C2OC(CO)C(O)C2O)n1 (stereo unspecified)", "propertyName": "T/C", "recordedResult": "105 % of control"}
{"molecule": "[N-]=[N+]=NC1=C(c2ccccc2)C(=O)C(N=[N+]=[N-])=C(c2ccccc2)C1=O", "propertyName": "T/C", "recordedResult": "90 % of control"}
{"molecule": "N#Cc1cn(-c2cccc(Cl)c2)c2ncccc12", "propertyName": "T/C", "recordedResult": "91 % of control"}
{"molecule": "CCCCSc1nc(=O)[nH]nc1SCc1ccccc1", "propertyName": "T/C", "recordedResult": "95 % of control"}
{"molecule": "Nc1ccc(I)cc1C(=O)O", "propertyName": "T/C", "recordedResult": "97 % of control"}
{"molecule": "NC(=O)OCC(O)COc1ccc(Cl)cc1 (stereo unspecified)", "propertyName": "T/C", "recordedResult": "95 % of control"}
{"molecule": "Cc1ccc(C(C)(N=[N+]=[N-])c2ccccc2)cc1C (stereo unspecified)", "propertyName": "T/C", "recordedResult": "109 % of control"}
{"molecule": "O=Nc1c(N=O)c(N=O)c(N=O)c(N=O)c1N=O", "propertyName": "T/C", "recordedResult": "100 % of control"}
{"molecule": "Nc1c(Br)cccc1Br", "propertyName": "T/C", "recordedResult": "97 % of control"}
{"molecule": "O=C1c2cc(Br)ccc2NC1(c1c[nH]c2ccccc12)c1c[nH]c2ccccc12", "propertyName": "T/C", "recordedResult": "93 % of control"}
{"molecule": "O=NN(CCCCl)C(=O)NC1CCCCC1", "propertyName": "T/C", "recordedResult": "110 % of control"}
{"molecule": "CCN(CC)CCC(=O)OC", "propertyName": "T/C", "recordedResult": "97 % of control"}
{"molecule": "O=C(O)c1cc(Br)c(C(=O)O)cc1Br", "propertyName": "T/C", "recordedResult": "96 % of control"}
{"molecule": "N=c1ccn(O)cc1[N+](=O)[O-]", "propertyName": "T/C", "recordedResult": "114 % of control"}
{"molecule": "COc1cc(/C(C)=C2\\SC(=O)NC2=O)ccc1O", "propertyName": "T/C", "recordedResult": "98 % of control"}
{"molecule": "Ic1cccc(/C=N/Nc2nnc(N/N=C/c3cccc(I)c3)c3ccccc23)c1", "propertyName": "T/C", "recordedResult": "108 % of control"}
{"molecule": "CC(=O)NC(C(=O)O)C(C)C (stereo unspecified)", "propertyName": "T/C", "recordedResult": "99 % of control"}
{"molecule": "C[n+]1csc2ccccc21", "propertyName": "T/C", "recordedResult": "103 % of control"}
{"molecule": "CCOC(=O)C(C(=O)OCC)c1cccc(Cl)c1", "propertyName": "T/C", "recordedResult": "103 % of control"}
{"molecule": "O=C(NCCF)NC1C(O)OC(CO)C(O)C1O (stereo unspecified)", "propertyName": "T/C", "recordedResult": "98 % of control"}
{"molecule": "c1cnon1", "propertyName": "T/C", "recordedResult": "95 % of control"}

Recorded values, source PubChem BioAssay AID248.
